experimental-system: HDGF (human, UniProt P51858 1-240)
Sequence (P51858 whole entry): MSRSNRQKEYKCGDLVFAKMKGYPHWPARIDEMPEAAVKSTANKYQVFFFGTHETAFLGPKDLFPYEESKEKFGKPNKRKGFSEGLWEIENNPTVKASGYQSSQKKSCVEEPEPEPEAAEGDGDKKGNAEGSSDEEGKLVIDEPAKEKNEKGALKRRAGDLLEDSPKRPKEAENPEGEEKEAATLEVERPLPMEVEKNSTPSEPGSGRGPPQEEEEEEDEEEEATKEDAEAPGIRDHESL
protocol-description: PIFQ (Cy3 fluorescence quenching); 1 nM DNA; Hill fit (approximation model 0.017 nM); HDGF assays: 46 mM NaCl, 0.9 mM KCl, 3.3 mM Na2HPO4, 0.66 mM KH2PO4, pH 7.4; at least 1 h on ice; 1-10 nM Cy3 DNA, 10 pM-100 nM protein; RecA dsDNA control at pH 7.5
conditions: protein: recombinant; label: 5' Cy3
measure-name: Kd (pM)

binder	numeric-result
15 bp SMYD1 dsDNA (5' Cy3) (dsDNA) DNA 1: TTCAAGACCAGCCTG DNA 2: CAGGCTGGTCTTGAA	95
